Lab note: MIC readings collected with Staphylococcus aureus A5177 for the following compounds.
All answers are understood in µg/mL, so give the number only.

{"COMPOUND": "CC[C@H]1OC(=O)[C@H](C)C(=O)[C@H](C)[C@@H](O[C@@H]2O[C@H](C)C[C@H](N(C)C)[C@H]2O)[C@](C)(OCC#Cc2ccc(-c3ccccn3)s2)C[C@@H](C)C(=O)[C@H](C)[C@H]2NC(=O)O[C@@]21C", "MIC (µg/mL)": 0.05}
{"COMPOUND": "CC[C@H]1OC(=O)[C@H](C)C(=O)[C@H](C)[C@@H](O[C@@H]2O[C@H](C)C[C@H](N(C)C)[C@H]2O)[C@](C)(OCC#Cc2ccc(-c3ccccn3)s2)C[C@@H](C)C(=O)[C@H](C)[C@H]2N(N)C(=O)O[C@]12C", "MIC (µg/mL)": 0.05}
{"COMPOUND": "CC[C@H]1OC(=O)[C@H](C)[C@@H](O[C@H]2C[C@@](C)(OC)[C@@H](O)[C@H](C)O2)[C@H](C)[C@@H](O[C@@H]2O[C@H](C)C[C@H](N(C)C)[C@H]2O)[C@](C)(O)C[C@@H](C)C(=O)[C@H](C)[C@@H](O)[C@]1(C)O [Ery. A standard, Erythromycin A, reference compound]", "MIC (µg/mL)": 3.1}
{"COMPOUND": "CC[C@H]1OC(=O)[C@H](C)C(=O)[C@H](C)[C@@H](O[C@@H]2O[C@H](C)C[C@H](N(C)C)[C@H]2O)[C@](C)(OCC#Cc2ccc(-c3ccncc3)s2)C[C@@H](C)C(=O)[C@H](C)[C@H]2NC(=O)O[C@@]21C", "MIC (µg/mL)": 0.05}

Field: next compound
Tested system Staphylococcus aureus A5177; MIC recorded for CC[C@H]1OC(=O)[C@H](C)C(=O)[C@H](C)[C@@H](O[C@@H]2O[C@H](C)C[C@H](N(C)C)[C@H]2O)[C@](C)(OCC#Cc2ccc(-c3cccnc3)s2)C[C@@H](C)C(=O)[C@H](C)[C@H]2NC(=O)O[C@@]21C was 0.05

###

Lab note: MIC readings collected with Streptococcus Pneumonia 5649 for the following molecules.
All answers are understood in mg/L, so give the number only.

Example molecules with recorded MIC:
{"MOLECULE": "CC[C@H]1OC(=O)[C@H](C)C(=O)[C@H](C)[C@@H](O[C@@H]2O[C@H](C)C[C@H](N(C)C)[C@H]2O)[C@](C)(OCC#Cc2ccc(-c3ccccn3)s2)C[C@@H](C)C(=O)[C@H](C)[C@H]2N(N)C(=O)O[C@]12C [Example 5]", "STUDY_SYSTEM": "Streptococcus Pneumonia 5649", "UNIT_SPEC": "mg/L", "MIC": 0.25}
{"MOLECULE": "CC[C@H]1OC(=O)[C@H](C)C(=O)[C@H](C)[C@@H](O[C@@H]2O[C@H](C)C[C@H](N(C)C)[C@H]2O)[C@](C)(OCC#Cc2ccc(-c3cccnc3)s2)C[C@@H](C)C(=O)[C@H](C)[C@H]2NC(=O)O[C@@]21C [Example 2]", "STUDY_SYSTEM": "Streptococcus Pneumonia 5649", "UNIT_SPEC": "mg/L", "MIC": 0.12}
{"MOLECULE": "CC[C@H]1OC(=O)[C@H](C)C(=O)[C@H](C)[C@@H](O[C@@H]2O[C@H](C)C[C@H](N(C)C)[C@H]2O)[C@](C)(OCC#Cc2ccc(-c3ccncc3)s2)C[C@@H](C)C(=O)[C@H](C)[C@H]2NC(=O)O[C@@]21C [Example 3]", "STUDY_SYSTEM": "Streptococcus Pneumonia 5649", "UNIT_SPEC": "mg/L", "MIC": 0.125}
{"MOLECULE": "CC[C@H]1OC(=O)[C@H](C)C(=O)[C@H](C)[C@@H](O[C@@H]2O[C@H](C)C[C@H](N(C)C)[C@H]2O)[C@](C)(OCC#Cc2ccc(-c3ccccn3)s2)C[C@@H](C)C(=O)[C@H](C)[C@H]2NC(=O)O[C@@]21C [Example 1]", "STUDY_SYSTEM": "Streptococcus Pneumonia 5649", "UNIT_SPEC": "mg/L", "MIC": 0.25}

Field: next molecule
Tested system Streptococcus Pneumonia 5649; MIC recorded for CC[C@H]1OC(=O)[C@H](C)[C@@H](O[C@H]2C[C@@](C)(OC)[C@@H](O)[C@H](C)O2)[C@H](C)[C@@H](O[C@@H]2O[C@H](C)C[C@H](N(C)C)[C@H]2O)[C@](C)(O)C[C@@H](C)C(=O)[C@H](C)[C@@H](O)[C@]1(C)O [Ery. A standard, Erythromycin A, reference compound] was 16

###

- Test system: Streptococcus Pneumonia 5979
This listing pairs compounds with measured MIC.
All answers are understood in µg/mL, so give the number only.

{"MOL_SMILES": "CC[C@H]1OC(=O)[C@H](C)C(=O)[C@H](C)[C@@H](O[C@@H]2O[C@H](C)C[C@H](N(C)C)[C@H]2O)[C@](C)(OCC#Cc2ccc(-c3ccccn3)s2)C[C@@H](C)C(=O)[C@H](C)[C@H]2N(N)C(=O)O[C@]12C", "MIC [µg/mL]": 2}

Tested system Streptococcus Pneumonia 5979; MIC recorded for CC[C@H]1OC(=O)[C@H](C)C(=O)[C@H](C)[C@@H](O[C@@H]2O[C@H](C)C[C@H](N(C)C)[C@H]2O)[C@](C)(OCC#Cc2ccc(-c3ccncc3)s2)C[C@@H](C)C(=O)[C@H](C)[C@H]2NC(=O)O[C@@]21C was 2

Tested system Streptococcus Pneumonia 5979; MIC recorded for CC[C@H]1OC(=O)[C@H](C)C(=O)[C@H](C)[C@@H](O[C@@H]2O[C@H](C)C[C@H](N(C)C)[C@H]2O)[C@](C)(OCC#Cc2ccc(-c3cccnc3)s2)C[C@@H](C)C(=O)[C@H](C)[C@H]2NC(=O)O[C@@]21C was 0.25

Tested system Streptococcus Pneumonia 5979; MIC recorded for CC[C@H]1OC(=O)[C@H](C)C(=O)[C@H](C)[C@@H](O[C@@H]2O[C@H](C)C[C@H](N(C)C)[C@H]2O)[C@](C)(OCC#Cc2ccc(-c3ccccn3)s2)C[C@@H](C)C(=O)[C@H](C)[C@H]2NC(=O)O[C@@]21C was 0.25

###

- System: Staphylococcus aureus CMX 642A
This listing pairs compounds with measured MIC.
All answers are understood in µg/mL, so give the number only.

Example compounds with recorded MIC:
{"COMPOUND": "CC[C@H]1OC(=O)[C@H](C)[C@@H](O[C@H]2C[C@@](C)(OC)[C@@H](O)[C@H](C)O2)[C@H](C)[C@@H](O[C@@H]2O[C@H](C)C[C@H](N(C)C)[C@H]2O)[C@](C)(O)C[C@@H](C)C(=O)[C@H](C)[C@@H](O)[C@]1(C)O [Ery. A standard, Erythromycin A, reference compound]", "MIC, µg/mL": 0.39}
{"COMPOUND": "CC[C@H]1OC(=O)[C@H](C)C(=O)[C@H](C)[C@@H](O[C@@H]2O[C@H](C)C[C@H](N(C)C)[C@H]2O)[C@](C)(OCC#Cc2ccc(-c3cccnc3)s2)C[C@@H](C)C(=O)[C@H](C)[C@H]2NC(=O)O[C@@]21C [Example 2]", "MIC, µg/mL": 0.05}
{"COMPOUND": "CC[C@H]1OC(=O)[C@H](C)C(=O)[C@H](C)[C@@H](O[C@@H]2O[C@H](C)C[C@H](N(C)C)[C@H]2O)[C@](C)(OCC#Cc2ccc(-c3ccncc3)s2)C[C@@H](C)C(=O)[C@H](C)[C@H]2NC(=O)O[C@@]21C [Example 3]", "MIC, µg/mL": 0.1}

Field: next compound
# MIC of CC[C@H]1OC(=O)[C@H](C)C(=O)[C@H](C)[C@@H](O[C@@H]2O[C@H](C)C[C@H](N(C)C)[C@H]2O)[C@](C)(OCC#Cc2ccc(-c3ccccn3)s2)C[C@@H](C)C(=O)[C@H](C)[C@H]2NC(=O)O[C@@]21C [Example 1] = 0.05

###

Lab note: MIC readings collected with Candida albicans CCH 442 for the following compounds.

{"MOL_SMILES": "CC[C@H]1OC(=O)[C@H](C)C(=O)[C@H](C)[C@@H](O[C@@H]2O[C@H](C)C[C@H](N(C)C)[C@H]2O)[C@](C)(OCC#Cc2ccc(-c3ccccn3)s2)C[C@@H](C)C(=O)[C@H](C)[C@H]2NC(=O)O[C@@]21C", "MIC": "> 100 µg/mL"}

Field: next compound
Tested system Candida albicans CCH 442; MIC recorded for CC[C@H]1OC(=O)[C@H](C)C(=O)[C@H](C)[C@@H](O[C@@H]2O[C@H](C)C[C@H](N(C)C)[C@H]2O)[C@](C)(OCC#Cc2ccc(-c3ccccn3)s2)C[C@@H](C)C(=O)[C@H](C)[C@H]2N(N)C(=O)O[C@]12C was > 100 µg/mL
